Values compiled from the supplement of paper PMC4466140.

Molecular target: AgSla1-D3
Experiment: SPOT peptide array binding signal intensity (averaged, normalized) (arbitrary units (background-subtracted, floor 0; scale differs between SH3 domains)); higher = stronger binding of the SH3 domain to the peptide
endpoint-label: SPOT peptide array binding signal intensity

binder: VPPVPLPFGIPPFPM
inequality-operator: =
recorded-value: 5.75
//
binder: ATKSASPTLPTRRSR
inequality-operator: =
recorded-value: 11.8
//
binder: ITHRLRISIPGITGR
inequality-operator: =
recorded-value: 6
//
binder: TEVPIPRRPPPPQAA
inequality-operator: =
recorded-value: 1
//
binder: HPRFVSPRIPSRIVK
inequality-operator: =
recorded-value: 32.5
//
binder: STPQTMRQAPKRPDA
inequality-operator: =
recorded-value: 0.5
//
binder: LFMKGTPEFPKSGFS
inequality-operator: =
recorded-value: 5
//
binder: NRPAIRIPSLKKPAL
inequality-operator: =
recorded-value: 5.5
//
binder: KLSRGRYGLPLSSRP
inequality-operator: =
recorded-value: 3.75
//
binder: RRRIAYPFYPFKKLG
inequality-operator: ≤
recorded-value: 0
